system: rodent lifetime carcinogenesis bioassay, tumor incidence TD50; experiment: carcinogenic potency in animals, long-term in vivo studies, CPDB compilation (AID 1745844); settings: mouse; strain B6C3F1; males; inhaled; site: all sites + forestomach + Harderian gland + heart + kidney + liver + lung + preputial gland; lesion: histiocytic sarcoma + malignant lymphoma, histiocytic type + malignant lymphoma, mixed type + malignant lymphoma, lymphocytic; dosed 82 weeks; study length 104 weeks
READOUT_KIND: TD50 (mg/kg/day)
The response must be a number in mg/kg/day with no trailing unit.

Please report the recorded TD50 for C=CC=C .
10.7

---

tested on: rodent lifetime carcinogenesis bioassay, tumor incidence TD50; assay: carcinogenic potency in animals, long-term in vivo studies, CPDB compilation (AID 1745844); settings: rat; strain Fischer 344; males; in drinking water; site: pancreas, exocrine; lesion: acinar-cell adenoma; dosed 118 weeks; study length 128 weeks
READOUT_KIND: TD50 (mg/kg/day)
The response must be a number in mg/kg/day with no trailing unit.

Please report the recorded TD50 for CN(CCCC(=O)c1cccnc1)N=O .
29.2

---

tested on: rodent lifetime carcinogenesis bioassay, tumor incidence TD50; assay: carcinogenic potency in animals, long-term in vivo studies, CPDB compilation (AID 1745844); details: rat; strain Charles River CD (Sprague-Dawley); males; in feed; site: liver; lesion: hepatoma; dosed 64 weeks; study length 73 weeks
READOUT_KIND: TD50

Please report the recorded TD50 for Cc1ccc(N)cc1N .
22.2 mg/kg/day

---

test system: rodent lifetime carcinogenesis bioassay, tumor incidence TD50; test: carcinogenic potency in animals, long-term in vivo studies, CPDB compilation (AID 1745844); settings: rat; strain Sprague-Dawley; females; in feed; site: kidney/pelvis; lesion: transitional-cell carcinoma; dosed 40 weeks; study length 59 weeks
READOUT_KIND: TD50

Please report the recorded TD50 for CC(=O)Nc1nnc(-c2ccc([N+](=O)[O-])o2)s1 .
16.9 mg/kg/day

---

test system: rodent lifetime carcinogenesis bioassay, tumor incidence TD50; assay: carcinogenic potency in animals, long-term in vivo studies, CPDB compilation (AID 1745844); conditions: hamster; strain Syrian Golden; females; by gavage; site: liver; lesion: several types; types named in the paper; dosed 59 weeks; study length 83 weeks
READOUT_KIND: TD50
# output: numeric value plus its unit

Please report the recorded TD50 for CC1CN(N=O)CC(C)O1 (stereo unspecified) .
11 mg/kg/day

---

system: rodent lifetime carcinogenesis bioassay, tumor incidence TD50; test: carcinogenic potency in animals, long-term in vivo studies, CPDB compilation (AID 1745844); conditions: mouse; strain B6AKF1; females; oral dosing; site: liver; lesion: hemangioma; dosed 76 weeks; study length 76 weeks
The source made the active and inactive calls. The rule behind the calls is not given here.
READOUT_KIND: TD50

Item: S=C=Nc1ccccc1 Test system: rodent lifetime carcinogenesis bioassay, tumor incidence TD50 Read-out: TD50 Value: ?
138 mg/kg/day (inactive)

---

system: rodent lifetime carcinogenesis bioassay, tumor incidence TD50; experiment: carcinogenic potency in animals, long-term in vivo studies, CPDB compilation (AID 1745844); settings: mouse; strain B6C3F1; males; inhaled; site: liver; lesion: hepatocellular adenoma + hepatoblastoma + hepatocellular carcinoma; dosed 104 weeks; study length 104 weeks
READOUT_KIND: TD50 (mg/kg/day)
The response must be a number in mg/kg/day with no trailing unit.

# count of solved cases: 2
- MOLECULE: "O=[O+][O-]"
  TEST_TARGET: "rodent lifetime carcinogenesis bioassay, tumor incidence TD50"
  UNIT_DESCRIPTOR: "mg/kg/day"
  TD50: 1.68
- MOLECULE: "CC(O)COC(C)(C)C (stereo not drawn)"
  TEST_TARGET: "rodent lifetime carcinogenesis bioassay, tumor incidence TD50"
  UNIT_DESCRIPTOR: "mg/kg/day"
  TD50: 1980

Proceeding to the next molecule to report its TD50.
Item: C=CC(=C)Cl Test system: rodent lifetime carcinogenesis bioassay, tumor incidence TD50 Read-out: TD50 Value: ?
39.9

---

system: rodent lifetime carcinogenesis bioassay, tumor incidence TD50; assay: carcinogenic potency in animals, long-term in vivo studies, CPDB compilation (AID 1745844); conditions: mouse; strain RIII (MTV+); males; in drinking water; site: lung; lesion: several types; types named in the paper; dosed 104 weeks; study length 104 weeks
READOUT_KIND: TD50 (mg/kg/day)
The response must be a number in mg/kg/day with no trailing unit.

Please report the recorded TD50 for O=S(=O)(O)NC1CCCCC1 .
4670

---

tested on: rodent lifetime carcinogenesis bioassay, tumor incidence TD50; assay: carcinogenic potency in animals, long-term in vivo studies, CPDB compilation (AID 1745844); conditions: rat; strain Fischer 344; females; by gavage; site: liver; lesion: cholangiocarcinoma + hepatocellular carcinoma + neoplastic nodule; dosed 25 weeks; study length 124 weeks
READOUT_KIND: TD50

Item: Brc1cc(Br)c(-c2cc(Br)c(Br)cc2Br)cc1Br Test system: rodent lifetime carcinogenesis bioassay, tumor incidence TD50 Read-out: TD50 Value: ?
0.596 mg/kg/day

---

tested on: rodent lifetime carcinogenesis bioassay, tumor incidence TD50; assay: carcinogenic potency in animals, long-term in vivo studies, CPDB compilation (AID 1745844); conditions: rat; strain MRC; males; by gavage; site: esophagus; lesion: several types; types named in the paper; dosed 51 weeks; study length 58 weeks
READOUT_KIND: TD50

Item: CC(=O)CN(C)N=O Test system: rodent lifetime carcinogenesis bioassay, tumor incidence TD50 Read-out: TD50 Value: ?
0.0642 mg/kg/day

---

tested on: rodent lifetime carcinogenesis bioassay, tumor incidence TD50; experiment: carcinogenic potency in animals, long-term in vivo studies, CPDB compilation (AID 1745844); conditions: rat; strain Fischer 344; males; by gavage; site: liver; lesion: hepatocellular carcinoma; dosed 121 weeks; study length 121 weeks
READOUT_KIND: TD50

Please report the recorded TD50 for Cc1ccc(S(=O)(=O)OCCN(C)N=O)cc1 .
32.2 mg/kg/day

---

Readings of TD50 for the listed molecules
system: rodent lifetime carcinogenesis bioassay, tumor incidence TD50; assay: carcinogenic potency in animals, long-term in vivo studies, CPDB compilation (AID 1745844); conditions: mouse; strain B6C3F1; females; by gavage; site: all sites; lesion: lymphoma; dosed 104 weeks; study length 104 weeks
The response must be a number in mg/kg/day with no trailing unit.

- MOLECULAR_STRING: "Clc1cc2c(cc1Cl)Oc1cc(Cl)c(Cl)cc1O2"
  UNIT_DESCRIPTOR: "mg/kg/day"
  MEASURED: 0.000682

Please report the recorded TD50 for C=C(Cl)Cl .
4.02

---

test system: rodent lifetime carcinogenesis bioassay, tumor incidence TD50; assay: carcinogenic potency in animals, long-term in vivo studies, CPDB compilation (AID 1745844); conditions: rat; strain Fischer 344; females; by gavage; site: colon; lesion: adenoma; dosed 37 weeks; study length 60 weeks
READOUT_KIND: TD50 (mg/kg/day)
The response must be a number in mg/kg/day with no trailing unit.

Please report the recorded TD50 for NC(=O)N(CCO)N=O .
1.53

---

test system: rodent lifetime carcinogenesis bioassay, tumor incidence TD50; test: carcinogenic potency in animals, long-term in vivo studies, CPDB compilation (AID 1745844); conditions: mouse; strain B6C3F1; females; in feed; site: liver; lesion: hepatocellular adenoma; dosed 104 weeks; study length 104 weeks
Activity calls are given as the source filed them. No rule for the calls is given here.
READOUT_KIND: TD50

# count of solved cases: 3
- COMPOUND: "CCCc1c(OCCCCc2nn[nH]n2)ccc(C(C)=O)c1O"
  READOUT_KIND: "TD50"
  MEASURED: "369 mg/kg/day"
- COMPOUND: "Nc1c(Br)cc(Br)c2c1C(=O)c1ccccc1C2=O"
  READOUT_KIND: "TD50"
  MEASURED: "515 mg/kg/day"
- COMPOUND: "CC1=C(C(=O)OCCN(Cc2ccccc2)c2ccccc2)C(c2cccc([N+](=O)[O-])c2)C(P2(=O)OCC(C)(C)CO2)=C(C)N1 (stereo unspecified)"
  READOUT_KIND: "TD50"
  MEASURED: "11500 mg/kg/day (inactive)"

Please report the recorded TD50 for CC(C)(CCCOc1ccc(OCCCC(C)(C)C(=O)O)c(-c2ccccc2)c1)C(=O)O .
90.6 mg/kg/day

Cc1ncc[nH]1 , same question.
1380 mg/kg/day

---

system: rodent lifetime carcinogenesis bioassay, tumor incidence TD50; assay: carcinogenic potency in animals, long-term in vivo studies, CPDB compilation (AID 1745844); conditions: rat; strain Fischer 344; females; by gavage; site: thyroid gland; lesion: follicular-cell adenoma + follicular-cell carcinoma; dosed 104 weeks; study length 105 weeks
READOUT_KIND: TD50

Please report the recorded TD50 for CCCC(Cl)CCCC(Cl)CCC(Cl)CCC(Cl)CCC(Cl)CCCC(Cl)CCC (stereo unspecified) .
1160 mg/kg/day

// provenance: PubChem BioAssay AID1745844
